B1: tRNA (parent)
chain: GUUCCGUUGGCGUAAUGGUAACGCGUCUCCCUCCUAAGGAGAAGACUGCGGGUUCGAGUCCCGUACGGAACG

- Variants of: B1
- protocol_summary: yeast fitness relative to wild type (ratio to wild type); higher = fitter; tRNA-Arg(CCU), competitive growth, 37 C, YPD
Fewer inactive variants are shown than the library holds.
Parameter yeast fitness: see the listing below.

| residue_string | reading_qualifier | yeast fitness |
| --- | --- | --- |
| GUUCCGUUGGCGUAAUGGUAAAGCAUCUCCCUCCUAAGGAGAAGACUGCGGGUUCGAGUCCCGUUCGGAACG [C22A G25A A65U] | = | 0.684 |
| GUUACGUUGGCGUAAUGGUAACGCGUCUCCCUCCAAUGGAGAAGACUGCGGGUUCGAGUCCCGUACUGAACG [C4A U35A A37U G67U] | ≤ | 0.5 |
| GUUCCGUUGGCGUAACGGUAACGCGUCUCCCUCCUAAGGAGAAGACUGCGGGUUCGAGCCCCGUACAGAACG [U16C U59C G67A] | ≤ | 0.5 |
| GUUCCGUCGGCGUAAUAGUAACGCGUCUCCCUCCUAAGGACAAGACUGCGGGUUCGAGUCCCGACCGGAACG [U8C G17A G41C U64A A65C] | ≤ | 0.5 |
| GUUCCGUUGGCGUAAUGGUAACGCGUGUCCCUCCUAAGGAGAAGACUGCGGGUACGAGUCCCGUACGGAACG [C27G U54A] | = | 0.544 |
| GUUCCGUUGGCGUGAUGGUAACGCGUCCCCCUCCUAAGGAGAAGACUGCGGGUUCGAGUCCCGUACUGCACG [A14G U28C G67U A69C] | ≤ | 0.5 |
| GUUCCGUUGGCGUAAUGGUAACGCGUCUCACUCCUAAGGAGGAGACUGCGGGUACGCGUCCCGUACGGAACG [C30A A42G U54A A57C] | ≤ | 0.5 |
| GUUCCGUUGGCAUAAUGGUAACGCGUCUCCCUCCUAAGGAGAAGACUGCGGGUUAGAGUCCCGUCCGGAACG [G12A C55A A65C] | ≤ | 0.5 |
| GUUGCGUUGGAGUAAUGGUAACGCGUCUCCCUCCAAAGGAGAAGACUGUGGGUUCGAGGCCCGUACUGAACG [C4G C11A U35A C49U U59G G67U] | = | 0.554 |
| GUUCCGUUGGGGUAAUGGUAACGCGUCUCCCUCCUGAGGAGAAGACUGCGGAUUCGAGUCCCGUACGGAACG [C11G A36G G52A] | ≤ | 0.5 |
| GUUCCGUUGGCGUAAUGGUCACGCGUCACCCUCCUAAGGAGAAGACUGCGGGUUCGAGUCCCGUACGGAGCG [A20C U28A A70G] | = | 0.564 |
| GUUCCGUUGGCGUAAUGGUAACGCGUUUCCCUCCUAAAGAGAAGACUGCGGGUUCGAGUCCCGUACGCAACG [C27U G38A G68C] | ≤ | 0.5 |
| GUUCCGUUGGCGUAAUGGAAAGGCGUCUCCCUCCUAAGGAGAAGUCUGUGGGUUCGAGUCCCGAACGGAACG [U19A C22G A45U C49U U64A] | ≤ | 0.5 |
| GUUACGUUGGCGUAAUGGUAACACGUCUCCCUCCGAAGGAGAAGACUGCGGGUUCGAGUCACGUACGGAACG [C4A G23A U35G C61A] | ≤ | 0.5 |
| GUUCCGGUGGCGUAAUGGAAACGCGUCUCGCUUCUAAGGAGAAGACUGCGGGUUCGAGUCGCGUACGGAACG [U7G U19A C30G C33U C61G] | ≤ | 0.5 |
| GUUCCGUUGGCGUAAUGGUAACGCGUCUCCCUCCUAAGGAGAAGAUUGCGGAUUCGAGCCCCGUACGGAACG [C46U G52A U59C] | = | 0.631 |
| GUUCCGUUGGCGUAAUGGUAACGCGUCUCCCUCCUAAGGAGAAGUUUGCGGGCUCGAGUCCCGUACGGAACG [A45U C46U U53C] | = | 0.574 |
| GUUCCCUUGGCGUAAUGGUAACGCGUCUCACUCCUAAGGAGAAGGCUGCGGGUUGGUGUCCGGUACGGAACG [G6C C30A A45G C55G A57U C62G] | ≤ | 0.5 |
| GGUCCGUUGGCGUAAUGGUAACGCGGCUCCCUCCUAAGGAGAAGACUGGGGGUUCGAGUCCCGUACGGAACG [U2G U26G C49G] | = | 0.724 |
| GUUCCGGUAGCGUAAUGGUAACGCGUCUCCCUCCUAAGGAGACGACUGCGGGUUCGAGUCCCGUACGGAACG [U7G G9A A43C] | = | 0.515 |
| GUUCCGUGGGCGUAAUGGUAACGCGUCUCCCUCCUAAGGUGAAGACUGCGGAUUCGAGUCCCGUACGGUACG [U8G A40U G52A A69U] | ≤ | 0.5 |
| GUUCCGUUCGCGUAAUGCUAACGCGUCUCCCUCCUAAGGAGAAAACUGCGGGUUCGAGUCCCGUACGGAACG [G9C G18C G44A] | = | 0.526 |

Where do the numbers come from? From the RNAGym collection of RNA variant scans (doi:10.1126/science.aae0568).
